These measurements were taken from patent US20230256092A1.

Target: T1, human CCR8 (Homo sapiens, UniProt P51685)
T1 construct: expressed in transfected cells; host or cells: 293 cells
Assay: Neutralizing activity: inhibition of Ca2+ influx by 200 nM hCCL1 in human CCR8 expressing 293 cells (FLIPR), Test Example 6
Format: cell-based
Conditions: Table 9; WT IC50/mutant IC50; humanized 10A11 heavy chain CDR mutants, IGKV4-1/IGHV3-73
Method: The antibody dilution diluted with a medium was added to human CCR8 expressing 293 cells in which a Ca^2+ indicator was incorporated beforehand, and Ca^2+ influx by addition of 200 nM hCCL1 (manufactured by BioLegend) was measured with FLIPR. […] The evaluation was performed at least three times, and IC50 was expressed as average±SD.
Parameter IC50 ratio: see the listing below.

Molecule | IC50 ratio
h10A11 (IGKV4-1/IGHV3-73 T31A): humanized 10A11 heavy chain CDR point mutant (antibody, V domains shown) VL: DIVMTQSPDSLAVSLGERATINCRSSKSLLHSNGNTYLYWYQQKPGQPPKLLIYRMSNLASGVPDRFSGSGSGTDFTLTISSLQAEDVAVYYCMQHLEYPLTFGQGTKLEIKRT VH: EVQLVESGGGLVQPGGSLKLSCAASGFAFNAYALYWVRQASGKGLEWVGRIRSKSNNYATYYADSVKDRFTISRDDSKNTAYLQMNSLKTEDTAVYYCTRARFYYSDYGYAMDYWGQGTLVTVSS | 0.17

Identify IC50 ratio associated with the molecule h10A11 (IGKV4-1/IGHV3-73 D61E): humanized 10A11 heavy chain CDR point mutant (antibody, V domains shown) VL: DIVMTQSPDSLAVSLGERATINCRSSKSLLHSNGNTYLYWYQQKPGQPPKLLIYRMSNLASGVPDRFSGSGSGTDFTLTISSLQAEDVAVYYCMQHLEYPLTFGQGTKLEIKRT VH: EVQLVESGGGLVQPGGSLKLSCAASGFAFNTYALYWVRQASGKGLEWVGRIRSKSNNYATYYAESVKDRFTISRDDSKNTAYLQMNSLKTEDTAVYYCTRARFYYSDYGYAMDYWGQGTLVTVSS 0.25
